In this section we review reported viability, T/C values for a set of compounds.
Tested on: 945468-187-T-J2-PDC spheroids viability
Experiment: Anticancer human tumor 945468-187-T-J2-PDC patient-derived rectal carcinoma cell line growth inhibition [PI3K]
Details: second compound 10 µM; first compound 0.000316 µM; stronger effect = lower value; spheroids with HUVEC and MSC

{"columns": ["compound", "viability, T/C [%]"],
 "data": [
  ["Cn1ncnc1[C@H]1c2n[nH]c(=O)c3cc(F)cc(c23)N[C@@H]1c1ccc(F)cc1 + Cc1nc(NC(=O)N2CCCC2C(N)=O)sc1-c1ccnc(C(C)(C)C(F)(F)F)c1", 99.3],
  ["CC(=O)c1c(C)c2cnc(Nc3ccc(N4CCNCC4)cn3)nc2n(C2CCCC2)c1=O + Cc1nc(NC(=O)N2CCCC2C(N)=O)sc1-c1ccnc(C(C)(C)C(F)(F)F)c1", 83],
  ["CC(=O)c1c(C)c2cnc(Nc3ccc(N4CCNCC4)cn3)nc2n(C2CCCC2)c1=O + CC(Nc1ncnc2nc[nH]c12)c1cc2cccc(Cl)c2c(=O)n1-c1ccccc1", 101]
]}

###

Test system: 945468-187-T-J2-PDC spheroids viability
Test: Anticancer human tumor 945468-187-T-J2-PDC cell line growth inhibition [PI3K];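 also: spheroids exposed to compounds for seven days before reading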
Settings: curve of first compound; second compound 0.316 µM; spheroids with HUVEC and MSC
In this section we review reported IC50 values for a set of compounds.

{"columns": ["compound", "IC50"],
 "data": [
  ["CC(C)n1nc(-c2ccc3oc(N)nc3c2)c2c(N)ncnc21 + Cc1nc(NC(=O)N2CCCC2C(N)=O)sc1-c1ccnc(C(C)(C)C(F)(F)F)c1", "> 100 nM"],
  ["CCN1CCN(Cc2ccc(Nc3ncc(F)c(-c4cc(F)c5nc(C)n(C(C)C)c5c4)n3)nc2)CC1 + CC(Nc1ccc2c(c1)OCCn1cc(N3C(=O)OCC3C(F)F)nc1-2)C(N)=O", "712 nM"],
  ["CCN1CCN(Cc2ccc(Nc3ncc(F)c(-c4cc(F)c5nc(C)n(C(C)C)c5c4)n3)nc2)CC1 + COc1c(OCCCN2CCOCC2)ccc2c3n(c(=NC(=O)c4cnc(N)nc4)nc12)CCN3", "< 3.16 nM"],
  ["CC1(C)CCC(CN2CCN(c3ccc(C(=O)NS(=O)(=O)c4ccc(NCC5CCOCC5)c([N+](=O)[O-])c4)c(Oc4cnc5[nH]ccc5c4)c3)CC2)=C(c2ccc(Cl)cc2)C1 + Cc1nc(NC(=O)N2CCCC2C(N)=O)sc1-c1ccnc(C(C)(C)C(F)(F)F)c1", "> 10000 nM"],
  ["CC(=O)c1c(C)c2cnc(Nc3ccc(N4CCNCC4)cn3)nc2n(C2CCCC2)c1=O + Cc1nc(NC(=O)N2CCCC2C(N)=O)sc1-c1ccnc(C(C)(C)C(F)(F)F)c1", "> 100 nM"],
  ["Cn1cnc2c(F)c(Nc3ccc(Br)cc3Cl)c(C(=O)NOCCO)cc21 + COc1c(OCCCN2CCOCC2)ccc2c3n(c(=NC(=O)c4cnc(N)nc4)nc12)CCN3", "< 9.49 nM"],
  ["CC(C)NCC(C(=O)N1CCN(c2ncnc3c2C(C)CC3O)CC1)c1ccc(Cl)cc1 (stereo unspecified) + COc1c(OCCCN2CCOCC2)ccc2c3n(c(=NC(=O)c4cnc(N)nc4)nc12)CCN3", "< 31.6 nM"],
  ["Cn1cnc2c(F)c(Nc3ccc(Br)cc3Cl)c(C(=O)NOCCO)cc21 + CC(Nc1ccc2c(c1)OCCn1cc(N3C(=O)OCC3C(F)F)nc1-2)C(N)=O", "> 3000 nM"],
  ["CC(=O)c1c(C)c2cnc(Nc3ccc(N4CCNCC4)cn3)nc2n(C2CCCC2)c1=O + CC(Nc1ncnc2nc[nH]c12)c1cc2cccc(Cl)c2c(=O)n1-c1ccccc1", "> 100 nM"],
  ["C#Cc1c(F)ccc2cc(O)cc(-c3ncc4c(N5CC6CCC(C5)N6)nc(OCC56CCCN5CC(F)C6)nc4c3F)c12 (stereo unspecified) + CC(Nc1ncnc2nc[nH]c12)c1cc2cccc(Cl)c2c(=O)n1-c1ccccc1", "> 10000 nM"],
  ["CC(C)n1nc(-c2ccc3oc(N)nc3c2)c2c(N)ncnc21 + CC(Nc1ccc2c(c1)OCCn1cc(N3C(=O)OCC3C(F)F)nc1-2)C(N)=O", "75.4 nM"]
]}

###

Test system: 945468-187-T-J2-PDC spheroids viability
Assay: Anticancer human tumor 945468-187-T-J2-PDC cell line growth inhibition [PI3K];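 also: spheroids exposed to compounds for seven days before reading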
Settings: second compound 0.1 µM; first compound 0.03 µM; stronger effect = lower value; spheroids with HUVEC and MSC
measured_parameter: viability, T/C (%)

{"columns": ["compound", "unit", "readout_value"],
 "data": [
  ["Cn1cnc2c(F)c(Nc3ccc(Br)cc3Cl)c(C(=O)NOCCO)cc21 + CC(Nc1ncnc2nc[nH]c12)c1cc2cccc(Cl)c2c(=O)n1-c1ccccc1", "%", 82.1],
  ["Cn1cnc2c(F)c(Nc3ccc(Br)cc3Cl)c(C(=O)NOCCO)cc21 + Cc1nc(NC(=O)N2CCCC2C(N)=O)sc1-c1ccnc(C(C)(C)C(F)(F)F)c1", "%", 84.5],
  ["Cn1cnc2c(F)c(Nc3ccc(Br)cc3Cl)c(C(=O)NOCCO)cc21 + COc1c(OCCCN2CCOCC2)ccc2c3n(c(=NC(=O)c4cnc(N)nc4)nc12)CCN3", "%", 94.9],
  ["Cn1cnc2c(F)c(Nc3ccc(Br)cc3Cl)c(C(=O)NOCCO)cc21 + CC(Nc1ccc2c(c1)OCCn1cc(N3C(=O)OCC3C(F)F)nc1-2)C(N)=O", "%", 102]
]}

###

In this section we review reported viability, T/C values for a set of compounds.
Test system: 945468-187-T-J2-PDC spheroids viability
Test: Anticancer human tumor 945468-187-T-J2-PDC cell line growth inhibition [PI3K];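 also: spheroids exposed to compounds for seven days before reading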
Details: second compound 0.1 µM; first compound 0.1 µM; stronger effect = lower value; spheroids with HUVEC and MSC

{"columns": ["compound", "target_under_test", "unit", "viability, T/C"],
 "data": [
  ["C=CC(=O)N1CCN(c2nc(=O)n(-c3c(C)ccnc3C(C)C)c3nc(-c4c(O)cccc4F)c(F)cc23)C(C)C1 (stereo not given) + CC(Nc1ccc2c(c1)OCCn1cc(N3C(=O)OCC3C(F)F)nc1-2)C(N)=O", "945468-187-T-J2-PDC spheroids viability", "%", 88.1],
  ["Cn1ncc(Cl)c1-c1cc(C(=O)NC(CN)Cc2cccc(F)c2)sc1Cl (stereo not given) + CC(Nc1ccc2c(c1)OCCn1cc(N3C(=O)OCC3C(F)F)nc1-2)C(N)=O", "945468-187-T-J2-PDC spheroids viability", "%", 86.1],
  ["CC1(C)CCC(Nc2ncc(C(F)(F)F)c(-c3c[nH]c4c(P(C)(C)=O)c(C#N)ccc34)n2)CN1 (stereo not given) + CC(Nc1ccc2c(c1)OCCn1cc(N3C(=O)OCC3C(F)F)nc1-2)C(N)=O", "945468-187-T-J2-PDC spheroids viability", "%", 91],
  ["C=CC(=O)N1CCN(c2nc(=O)n(-c3c(C)ccnc3C(C)C)c3nc(-c4c(O)cccc4F)c(F)cc23)C(C)C1 (stereo not given) + COc1c(OCCCN2CCOCC2)ccc2c3n(c(=NC(=O)c4cnc(N)nc4)nc12)CCN3", "945468-187-T-J2-PDC spheroids viability", "%", 98.1],
  ["CC(Cn1ccc(-c2ccc(C#N)c(Cl)c2)n1)NC(=O)c1cc(C(C)O)[nH]n1 (stereo not given) + COc1c(OCCCN2CCOCC2)ccc2c3n(c(=NC(=O)c4cnc(N)nc4)nc12)CCN3", "945468-187-T-J2-PDC spheroids viability", "%", 95]
]}

###

Tested on: 945468-187-T-J2-PDC spheroids viability
Assay: Anticancer human tumor 945468-187-T-J2-PDC cell line growth inhibition [PI3K];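 also: spheroids exposed to compounds for seven days before reading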
Details: second compound 0.1 µM; first compound 0.0316 µM; stronger effect = lower value; spheroids with HUVEC and MSC
Description: Combinatorial screen of targeted agents with the PI3K inhibitors inavolisib, alpelisib, duvelisib, and copanlisib in multi-cell type tumor spheroids A high-throughput screen of multi-cell type tumor spheroids was designed to identify active combinations of targeted small molecules and PI3K pathway inhibitors. […] Compounds. […] If the clinical Cmax for an agent had not been determined, the highest concentration tested was 10 microM. […]
Doc: threshold 80% (exclusive). Items with viability, T/C beneath it return 1.0; others return 0.0.

{"columns": ["compound", "target_under_test", "answer_label"],
 "data": [
  ["CC(C)NCC(C(=O)N1CCN(c2ncnc3c2C(C)CC3O)CC1)c1ccc(Cl)cc1 (stereo unspecified) + CC(Nc1ncnc2nc[nH]c12)c1cc2cccc(Cl)c2c(=O)n1-c1ccccc1", "945468-187-T-J2-PDC spheroids viability", 0.0],
  ["C[C@@H](NC(=O)c1ncnc(N)c1Cl)c1ncc(C(=O)Nc2cc(C(F)(F)F)c(Cl)cn2)s1 + CC(Nc1ccc2c(c1)OCCn1cc(N3C(=O)OCC3C(F)F)nc1-2)C(N)=O", "945468-187-T-J2-PDC spheroids viability", 0.0],
  ["CC(C)n1nc(-c2ccc3oc(N)nc3c2)c2c(N)ncnc21 + Cc1nc(NC(=O)N2CCCC2C(N)=O)sc1-c1ccnc(C(C)(C)C(F)(F)F)c1", "945468-187-T-J2-PDC spheroids viability", 0.0],
  ["CC(=O)c1c(C)c2cnc(Nc3ccc(N4CCNCC4)cn3)nc2n(C2CCCC2)c1=O + CC(Nc1ncnc2nc[nH]c12)c1cc2cccc(Cl)c2c(=O)n1-c1ccccc1", "945468-187-T-J2-PDC spheroids viability", 0.0],
  ["C[C@@H](NC(=O)c1ncnc(N)c1Cl)c1ncc(C(=O)Nc2cc(C(F)(F)F)c(Cl)cn2)s1 + Cc1nc(NC(=O)N2CCCC2C(N)=O)sc1-c1ccnc(C(C)(C)C(F)(F)F)c1", "945468-187-T-J2-PDC spheroids viability", 0.0],
  ["Cn1nccc1Nc1nccc(-c2ccn(C(CO)c3ccc(Cl)c(F)c3)c(=O)c2)n1 (stereo unspecified) + COc1c(OCCCN2CCOCC2)ccc2c3n(c(=NC(=O)c4cnc(N)nc4)nc12)CCN3", "945468-187-T-J2-PDC spheroids viability", 1.0],
  ["CC(C)NCC(C(=O)N1CCN(c2ncnc3c2C(C)CC3O)CC1)c1ccc(Cl)cc1 (stereo unspecified) + CC(Nc1ccc2c(c1)OCCn1cc(N3C(=O)OCC3C(F)F)nc1-2)C(N)=O", "945468-187-T-J2-PDC spheroids viability", 0.0],
  ["CCN1CCN(Cc2ccc(Nc3ncc(F)c(-c4cc(F)c5nc(C)n(C(C)C)c5c4)n3)nc2)CC1 + COc1c(OCCCN2CCOCC2)ccc2c3n(c(=NC(=O)c4cnc(N)nc4)nc12)CCN3", "945468-187-T-J2-PDC spheroids viability", 0.0],
  ["CNC(=O)c1ccc(N2C(=S)N(c3ccc(C#N)c(C(F)(F)F)c3)C(=O)C2(C)C)cc1F + COc1c(OCCCN2CCOCC2)ccc2c3n(c(=NC(=O)c4cnc(N)nc4)nc12)CCN3", "945468-187-T-J2-PDC spheroids viability", 0.0],
  ["C#Cc1c(F)ccc2cc(O)cc(-c3ncc4c(N5CC6CCC(C5)N6)nc(OCC56CCCN5CC(F)C6)nc4c3F)c12 (stereo unspecified) + COc1c(OCCCN2CCOCC2)ccc2c3n(c(=NC(=O)c4cnc(N)nc4)nc12)CCN3", "945468-187-T-J2-PDC spheroids viability", 1.0],
  ["Cn1ncc(Cl)c1-c1cc(C(=O)NC(CN)Cc2cccc(F)c2)sc1Cl (stereo unspecified) + COc1c(OCCCN2CCOCC2)ccc2c3n(c(=NC(=O)c4cnc(N)nc4)nc12)CCN3", "945468-187-T-J2-PDC spheroids viability", 1.0]
]}
